Biological target: T1, human chemokine (C-C motif) receptor 8 (CCR8) (human, UniProt P51685 1-355)
T1 construct: also called hCCR8
T1 sequence (P51685 whole entry): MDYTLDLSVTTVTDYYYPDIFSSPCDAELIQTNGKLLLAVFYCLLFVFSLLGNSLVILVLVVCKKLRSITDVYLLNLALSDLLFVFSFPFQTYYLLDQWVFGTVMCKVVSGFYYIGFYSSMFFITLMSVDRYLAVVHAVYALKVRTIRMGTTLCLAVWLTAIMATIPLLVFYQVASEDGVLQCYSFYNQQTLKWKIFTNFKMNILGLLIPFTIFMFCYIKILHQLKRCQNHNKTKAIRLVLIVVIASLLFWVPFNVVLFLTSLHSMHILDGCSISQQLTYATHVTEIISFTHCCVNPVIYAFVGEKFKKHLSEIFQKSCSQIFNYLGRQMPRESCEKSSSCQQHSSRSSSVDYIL
Experiment: flow cytometry blocking, human PBMC, CD3+ gate; % cells stained by competitor PE-AB6 after block
measurement-name: % Positive cells (%)

1. anti-CCR8 monoclonal antibody AB10 (antibody, V domains shown, Hybridoma monoclonal; also called antibody 10; clone 10) VH: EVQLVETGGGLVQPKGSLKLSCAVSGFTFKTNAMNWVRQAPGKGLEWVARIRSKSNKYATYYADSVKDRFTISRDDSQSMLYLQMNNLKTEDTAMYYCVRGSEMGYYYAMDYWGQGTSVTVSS VL: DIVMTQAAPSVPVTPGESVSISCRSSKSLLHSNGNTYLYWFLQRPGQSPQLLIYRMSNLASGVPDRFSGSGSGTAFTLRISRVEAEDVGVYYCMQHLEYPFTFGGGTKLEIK	7.78
2. anti-CCR8 monoclonal antibody AB7 (antibody, V domains shown, Hybridoma monoclonal; also called antibody 7; clone 7) VH: AVQLVESGGGLVQPKESLKISCAASGFTFSYAAMYWVRQTPGKGLEWVARIRTKPNNYATYYADSVKGRFTISRDDSKSMVYLQMDNLKSEDTAMYYCNIMGITRGYYFDYWGQGVMVTVSS VL: DIQMTQSPSFLSASVGDRVTINCKASQNINRYLNWYQQQLGEAPKLLIYNANNLQTGIPSRFSGSRSGTDFTLTISSLQPEDVATYFCLQHNSWPWTFGGGTKLELK	8.3
3. anti-CCR8 monoclonal antibody AB8 (antibody, V domains shown, Hybridoma monoclonal; also called antibody 8; clone 8) VH: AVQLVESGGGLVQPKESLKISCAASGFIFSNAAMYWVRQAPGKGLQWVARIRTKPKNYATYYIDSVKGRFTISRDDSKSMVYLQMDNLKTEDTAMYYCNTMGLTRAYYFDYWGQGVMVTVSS VL: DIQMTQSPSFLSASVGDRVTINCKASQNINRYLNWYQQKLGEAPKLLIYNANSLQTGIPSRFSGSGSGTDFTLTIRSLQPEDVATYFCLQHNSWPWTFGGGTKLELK	8.17
